Taken from patent US12540118B2.

EXPERIMENTAL SYSTEM: succinate dehydrogenase (Sus scrofa, UniProt A5GZW8+D0VWV4+Q007T0)
Construct: isolated from porcine hearts; from tissue; host or cells: porcine heart
Sequence (Q0QF01 43-664 partner): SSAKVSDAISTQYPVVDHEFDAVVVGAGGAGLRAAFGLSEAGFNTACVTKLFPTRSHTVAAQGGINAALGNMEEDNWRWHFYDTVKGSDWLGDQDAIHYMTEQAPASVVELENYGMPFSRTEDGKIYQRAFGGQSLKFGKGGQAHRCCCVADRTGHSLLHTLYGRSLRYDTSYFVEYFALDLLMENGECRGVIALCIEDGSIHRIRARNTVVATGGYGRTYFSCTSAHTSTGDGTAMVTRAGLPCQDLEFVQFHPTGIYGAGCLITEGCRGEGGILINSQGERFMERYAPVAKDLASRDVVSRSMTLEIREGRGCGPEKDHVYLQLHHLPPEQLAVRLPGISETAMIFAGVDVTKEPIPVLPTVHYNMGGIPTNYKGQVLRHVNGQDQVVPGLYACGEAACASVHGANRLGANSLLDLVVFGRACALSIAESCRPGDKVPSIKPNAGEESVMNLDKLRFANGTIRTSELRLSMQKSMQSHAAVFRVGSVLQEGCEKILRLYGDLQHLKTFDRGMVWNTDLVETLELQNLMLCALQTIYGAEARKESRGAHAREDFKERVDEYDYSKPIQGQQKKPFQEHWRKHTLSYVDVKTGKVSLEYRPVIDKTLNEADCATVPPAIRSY
Sequence (Q007T0 29-280): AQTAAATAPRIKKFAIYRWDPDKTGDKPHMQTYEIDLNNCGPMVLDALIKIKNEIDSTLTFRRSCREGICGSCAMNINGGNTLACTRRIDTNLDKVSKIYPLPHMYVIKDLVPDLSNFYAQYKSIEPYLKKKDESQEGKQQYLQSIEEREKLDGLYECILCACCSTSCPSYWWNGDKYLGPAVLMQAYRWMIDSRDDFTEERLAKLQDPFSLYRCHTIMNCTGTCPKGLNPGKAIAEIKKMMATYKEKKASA
Sequence (D0VWV4 30-169): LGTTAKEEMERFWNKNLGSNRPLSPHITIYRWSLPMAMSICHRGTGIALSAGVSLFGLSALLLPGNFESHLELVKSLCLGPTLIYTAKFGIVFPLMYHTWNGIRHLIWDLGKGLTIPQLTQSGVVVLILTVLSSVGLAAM
Sequence (A5GZW8 57-159 limits assumed): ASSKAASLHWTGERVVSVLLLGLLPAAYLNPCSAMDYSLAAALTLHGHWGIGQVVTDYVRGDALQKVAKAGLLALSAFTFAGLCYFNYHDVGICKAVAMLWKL
PROCEDURE SUMMARY: Enzyme activity assay, succinate dehydrogenase (DCIP reduction)
Format: biochemical, porcine
TEST CONTEXT: read-out: Inhibitors (10 μM, SQR)
ASSAY ENDPOINT: inhibition at 10 µM

Record excerpt, results attached:
CC(C(=C(Cl)Cl)c1ccc(C#CC2CC2)cc1F)N(C(=O)c1c(C(F)F)nn(C)c1F)C1CC1 (stereo not shown) [Compound 219]    > 90%
C=C(c1c(Br)cc(Br)cc1Br)C(C)N(C(=O)c1c(C(F)F)nn(C)c1F)C1CC1 (stereo not shown) [Compound 85]    > 90%

Parameters: items (list). Returns: inhibition at 10 µM for each item.
1. C=C(c1cccc(C(F)(F)F)c1Cl)C(C)N(C(=O)c1c(C(F)F)nn(C)c1F)C1CC1 (stereo not shown) [Compound 101]
2. Cn1nc(C(F)F)c(C(=O)N(CC(=C(Cl)Cl)c2cccc(S(C)(=O)=O)c2)C2CC2)c1F [Compound 160]
3. C=C(c1c(Cl)cccc1Cl)C(C)N(C(=O)c1c(C(F)F)nn(C)c1F)C1CC1 (stereo not shown) [Compound 73]

["> 90%", "> 90%", "> 90%"]
